System: Danio rerio embryo
Assay protocol: BMC10 any morphological effect or mortality at 120 hpf; higher = less toxic
For each entry below, report its BMC10 any morphological effect or mortality value.

Recall and state the measured BMC10 any morphological effect or mortality for "N[C@H]1C[C@@H]1c1ccc(-c2cccc(O)c2)cc1" .
3.27 µM

Recall and state the measured BMC10 any morphological effect or mortality for "COc1oc(=O)c2cc(N)ccc2c1Cl" .
42.2 µM

Recall and state the measured BMC10 any morphological effect or mortality for "CC(=O)N(O)CCCCCNC(=O)CCC(=O)N(O)CCCCCNC(=O)CCC(=O)N(O)CCCCCN.CS(=O)(=O)O" .
> 100 µM

----------
For each entry below, report its BMC10 any morphological effect or mortality value.
System: Danio rerio embryo
Assay protocol: BMC10 any morphological effect or mortality at 120 hpf; higher = less toxic
Report only the number, with the unit µM understood.

Write down the reported BMC10 any morphological effect or mortality (system: Danio rerio embryo) of CC(=O)O[C@]1(C(C)=O)CC[C@H]2[C@@H]3C=C(C)C4=CC(=O)CC[C@]4(C)[C@H]3CC[C@@]21C [Megestryl acetate]
4.08

Write down the reported BMC10 any morphological effect or mortality (system: Danio rerio embryo) of COc1cc2c(c(OC)c1OC)-c1c(cc(OC)c(OC)c1OC)C[C@H](C)[C@H](C)C2 [Schisandrin A]
3.78

Write down the reported BMC10 any morphological effect or mortality (system: Danio rerio embryo) of COc1c(C)c2c(c(O)c1C/C=C(\C)CCC(=O)O)C(=O)OC2 [Mycophenolic acid]
1.23

----------
For each entry below, report its BMC10 any morphological effect or mortality value.
System: Danio rerio embryo
Assay protocol: BMC10 any morphological effect or mortality at 120 hpf; higher = less toxic

Write down the reported BMC10 any morphological effect or mortality (system: Danio rerio embryo) of "CC(C)(C)NC(=O)[C@@H]1C[C@@H]2CCCC[C@@H]2CN1C[C@@H](O)[C@H](Cc1ccccc1)NC(=O)[C@H](CC(N)=O)NC(=O)c1ccc2ccccc2n1.CS(=O)(=O)O"
> 100 µM

Write down the reported BMC10 any morphological effect or mortality (system: Danio rerio embryo) of "COc1ncnc(NS(=O)(=O)c2ccc(N)cc2)c1OC"
> 100 µM

Write down the reported BMC10 any morphological effect or mortality (system: Danio rerio embryo) of C=C1CC[C@@H]2[C@](C)(CO)[C@H](O)CC[C@@]2(C)[C@@H]1/C=C/C1=CCOC1=O [14-deoxy-11,12-didehydro Andrographolide]
> 100 µM
